Target: KDM5A PHD3 finger with 5,6-difluorotryptophan at Trp18 and Trp28 (Homo sapiens) (UniProt P29375)
Assay: ITC; H3K4me3 peptide (380 uM) titrated to KDM5A PHD3 fingers (28 uM); for AUX WT-KDM5A 190 uM peptide and 21 uM protein; 20 mM TRIS-HCl pH 7.5, 50 mM NaCl, 1 mM DTT; 19 injections; one set of sites model; 7-9 repeats (AUX WT in replicate)
Where no end group is shown, it is not given here. Me3 = trimethyl (trimethylated lysine, Kme3)
quantity: Kd (nM)
API: value field is a number in nM; no unit string.

For the binder ARTK(Me3)QTARKS [H3K4me3 histone peptide (ARTKme3QTARKS)] , give its measured Kd value.
70
